I'd be grateful if you could share measured number of specimens in rating 1 for these entries.
- System: Mexican bean beetle
- TEST SUMMARY: topical application to Mexican bean beetle, fourth larval stage, maturation inhibition
- Type: in vivo
- APPLIED CONDITIONS: 10%; rating scale 0-3
One number for each entry, in specimens.

Field: example entries. Status: answers known.
{"COMPOUND": "COc1ccc(CCC=C(C)CCC=C(C)C)cc1OC", "number of specimens in rating 1, specimens": 3}
{"COMPOUND": "CC(C)=CCC/C(C)=C/CCc1ccc(Cl)c(Cl)c1", "number of specimens in rating 1, specimens": 1}
{"COMPOUND": "CC(C)=CCCC(C)=CCCc1cc2c(cc1Cl)OCO2", "number of specimens in rating 1, specimens": 3}
{"COMPOUND": "COc1ccc(CCC=C(C)CCC=C(C)C)cc1", "number of specimens in rating 1, specimens": 1}
{"COMPOUND": "CC(C)=CCC/C(C)=C/CCc1c(Cl)cccc1Cl", "number of specimens in rating 1, specimens": 2}

Continue with the compound presented below.
## Task Name the recorded number of specimens in rating 1 for CC(C)(Cl)CCCC(C)(Cl)CCCc1ccc2c(c1)OCO2 (stereo not drawn) .
## Result 1

Values were extracted from patent US3962282A.
